# MEASUREMENT TARGET: T1, human MSLN-R2-his protein (human, UniProt Q13421 391-486)
# T1 construct: it is put last here; also called human MSLN-R2 protein; hMSLN-R2-his; not shown: His tag
# T1 sequence (Q13421 other isoform, or with tags, fused parts or gaps): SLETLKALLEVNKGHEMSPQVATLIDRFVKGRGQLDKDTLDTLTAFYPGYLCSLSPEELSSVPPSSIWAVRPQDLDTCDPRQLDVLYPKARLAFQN
# ASSAY NOTES: ELISA on coated antigen, antibody 0.0002 nM
# OD450 per entry
# number then unit; no other words

These solved cases illustrate the format of a correct answer.
S009-F7.44.20 (antibody, human IgG1, kappa, V domains shown, Human-murine chimeric antibody, human IgG1 heavy and kappa light constant regions) VH: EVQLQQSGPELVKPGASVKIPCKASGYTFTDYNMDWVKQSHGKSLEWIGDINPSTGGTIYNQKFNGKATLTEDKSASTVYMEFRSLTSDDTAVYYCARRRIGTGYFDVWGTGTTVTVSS VL: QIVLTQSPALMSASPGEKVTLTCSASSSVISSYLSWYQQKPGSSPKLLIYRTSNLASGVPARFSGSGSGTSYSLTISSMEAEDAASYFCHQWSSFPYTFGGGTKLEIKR = 0.05 OD
S009-F7.11.11 (antibody, human IgG1, kappa, V domains shown, Human-murine chimeric antibody, human IgG1 heavy and kappa light constant regions) VH: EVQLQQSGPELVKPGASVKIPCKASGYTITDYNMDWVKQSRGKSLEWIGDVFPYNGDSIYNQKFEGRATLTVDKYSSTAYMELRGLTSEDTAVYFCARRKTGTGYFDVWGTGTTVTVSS VL: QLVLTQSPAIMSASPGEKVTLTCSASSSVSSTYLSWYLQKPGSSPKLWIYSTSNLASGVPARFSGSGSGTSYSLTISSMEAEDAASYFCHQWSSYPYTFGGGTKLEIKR = 0.05 OD

In the following, a different binder is considered.
### Prompt Write down OD450 measured for item S009-F7.18.10 (antibody, human IgG1, kappa, V domains shown, Human-murine chimeric antibody, human IgG1 heavy and kappa light constant regions) VH: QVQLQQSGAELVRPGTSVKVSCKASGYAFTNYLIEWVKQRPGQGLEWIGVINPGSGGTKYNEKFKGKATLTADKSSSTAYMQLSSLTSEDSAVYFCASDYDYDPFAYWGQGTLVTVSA VL: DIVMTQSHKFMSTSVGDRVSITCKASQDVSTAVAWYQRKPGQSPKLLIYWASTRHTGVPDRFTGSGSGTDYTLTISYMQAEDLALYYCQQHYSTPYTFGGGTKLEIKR
### Response 0.05 OD
